Reference source for all entries: ChEMBL document CHEMBL1146554

# Activity values compiled below
Tested on: Radical scavenging activity
Assay Method Text: Antioxidant activity assessed as DPPH radical scavenging activity at 115 uM after 30 mins
Format: functional
Respond with the bare value in %.

Some molecules with recorded Activity:
[[record]]
molecule = "CC(C)=CC(O)C/C(C)=C/CC/C(C)=C/C(=O)C/C(C)=C/Cc1cc(O)cc(C)c1O (stereo not given)"
property_name = "Activity"
recorded_number = 93.2

[[record]]
molecule = "C/C(=C/CC/C(C)=C/CC/C(C)=C/C(=O)C/C(C)=C/Cc1cc(O)cc(C)c1O)CO"
property_name = "Activity"
recorded_number = 96.1

[[record]]
molecule = "C/C(=C\\C(=O)C/C(C)=C/Cc1cc(O)cc(C)c1O)CC/C=C(\\C)Cc1cc(C)co1"
property_name = "Activity"
recorded_number = 95.2

[[record]]
molecule = "CC(C)=CCC/C(C)=C\\C(=O)C/C(C)=C/Cc1cc(O)cc(C)c1O"
property_name = "Activity"
recorded_number = 92.1

[[record]]
molecule = "CC(C)=CCC/C(C)=C/CC/C(C)=C/C(=O)C/C(C)=C/Cc1cc(O)cc(C)c1O"
property_name = "Activity"
recorded_number = 95


In the following, a different molecule is considered.
Ask: What reported Activity corresponds to "CC1=CC(=O)C=C(C/C=C(\C)CC(=O)/C=C(/C)CC/C=C(\C)Cc2cc(C)co2)C1=O" on Radical scavenging activity?
Result: 22.8

---

System: Radical scavenging activity
Assay Method Text: Antioxidant activity assessed as DPPH radical scavenging activity at 6 uM after 30 mins
Format: functional
// classify(record): look up Activity in ranges low class (below 3%), middle class (3% to below 7%), high class (7% or more)

Take a look at these entries with their results.
[[record]]
molecule = "CC(C)=CC(=O)C/C(C)=C/CC/C(C)=C/C(=O)C/C(C)=C/Cc1cc(O)cc(C)c1O"
system_under_test = "Radical scavenging activity"
class_label = "high class"

[[record]]
molecule = "CC(C)=CC(O)C/C(C)=C/CC/C(C)=C/C(=O)C/C(C)=C/Cc1cc(O)cc(C)c1O (stereo unspecified)"
system_under_test = "Radical scavenging activity"
class_label = "middle class"

[[record]]
molecule = "Cc1cc(C(C)(C)C)c(O)c(C(C)(C)C)c1"
system_under_test = "Radical scavenging activity"
class_label = "low class"

[[record]]
molecule = "CC1=CC(=O)C=C(C/C=C(\\C)CC(=O)/C=C(/C)CC/C=C(\\C)Cc2cc(C)co2)C1=O"
system_under_test = "Radical scavenging activity"
class_label = "low class"

[[record]]
molecule = "CC(C)=CCC/C(C)=C/C(=O)C/C(C)=C/Cc1cc(O)cc(C)c1O"
system_under_test = "Radical scavenging activity"
class_label = "low class"


Ask: Using the reported Activity, which band applies to "CC(C)=CCC/C(C)=C\C(=O)C/C(C)=C/Cc1cc(O)cc(C)c1O" ?
Result: low class

Ask: Please let me know in which category the item "CC(C)=CCC/C(C)=C/CC/C(C)=C/C(=O)C/C(C)=C/Cc1cc(O)cc(C)c1O" belongs.
Result: middle class

Ask: Given "CC1=CC(=O)C=C(C/C=C(\C)CC(=O)/C=C(\C)CC/C=C(\C)Cc2cc(C)co2)C1=O" , name the class its Activity places it in.
Result: low class

Ask: Each molecule maps to one class by Activity. Which class for "C/C(=C/CC/C(C)=C/CC/C(C)=C/C(=O)C/C(C)=C/Cc1cc(O)cc(C)c1O)CO" ?
Result: high class

Ask: # bin label for "C/C(=C/CC/C(C)=C/CC/C(C)=C\C(=O)C/C(C)=C/Cc1cc(O)cc(C)c1O)CO"
Result: high class
